Data origin, for the record: patent US20240309093A1

Below, each of the binders is paired with its reported EC50 value.
target under test: T1, recombinant human PD-1-his protein (human, UniProt Q15116 25-167)
T1 construct: also called hPD-1-his; not shown: his tag
T1 sequence (Q15116 25-167 limits assumed): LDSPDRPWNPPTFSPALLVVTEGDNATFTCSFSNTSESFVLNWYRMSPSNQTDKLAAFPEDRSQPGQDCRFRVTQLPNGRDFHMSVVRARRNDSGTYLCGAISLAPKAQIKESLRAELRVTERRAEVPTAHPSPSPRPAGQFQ
assay comment: ELISA; PD-1-his coated 2 µg/mL, anti-human IgG Fc-HRP
Use pM as the unit, but write only the number.

MHPD1-A-4 H Fc (Fc fusion, not shown: a dimerising Fc or GST) QVQLVESGGGLVQPGGSLRLSCAASGSVGSIYAMGWFRQAPGKGLEFVAGIGWAFATTYYADSVKGRFTISRDNTKNTLYLQMNSLRAEDTAVYYCAADLDHSGFDYWGQGTLVTVSS : 169
MHPD1-A-11 H Fc (Fc fusion, not shown: a dimerising Fc or GST; small tags and cut ends) VHH: QVQLVESGGGLVQPGGSLRLSCAASGSQLSIYAMGWFRQAPGKGLEFVAGIGWRFATTYYADSVKGRFTISRDNTKNTLYLQMNSLRAEDTAVYYCAADLDHSGFDYWGQGTLVTVSS : 222
MHPD1-A-3 H Fc (Fc fusion, not shown: a dimerising Fc or GST; small tags and cut ends) VHH: QVQLVESGGGLVQPGGSLRLSCAASGSGRSIYAMGWFRQAPGKGLEFVAGIGWSYATTYYADSVKGRFTISRDNTKNTLYLQMNSLRAEDTAVYYCAADLDHSGFDYWGQGTLVTVSS : 251
MHPD1-A-1 H Fc (Fc fusion, not shown: a dimerising Fc or GST; small tags and cut ends) VHH: QVQLVESGGGLVQPGGSLRLSCAASGSDPSIYAMGWFRQAPGKGLEFVAGIGWAWATTYYADSVKGRFTISRDNTKNTLYLQMNSLRAEDTAVYYCAADLDRSGFDYWGQGTLVTVSS : 613
MHPD1-A-10 H Fc (Fc fusion, not shown: a dimerising Fc or GST; small tags and cut ends) VHH: QVQLVESGGGLVQPGGSLRLSCAASGSDDRIYAMGWFRQAPGKGLEFVAGIGWRYATTYYADSVKGRFTISRDNTKNTLYLQMNSLRAEDTAVYYCAADLDHSGFDYWGQGTLVTVSS : 200

Query: Which measured EC50 value corresponds to MHPD1-A-2 H Fc (Fc fusion, not shown: a dimerising Fc or GST; small tags and cut ends) VHH: QVQLVESGGGLVQPGGSLRLSCAASGRFPSIYAMGWFRQAPGKGLEFVAGIGWRYATTYYADSVKGRFTISRDNTKNTLYLQMNSLRAEDTAVYYCAADLDHSGFDYWGQGTLVTVSS ?
Result: 553

Query: Which measured EC50 value corresponds to MHPD1-A-8 H Fc (Fc fusion, not shown: Fc) QVQLVESGGGLVQPGGSLRLSCAASGGRPSIYAMGWFRQAPGKGLEFVAGIGWAFATTYYADSVKGRFTISRDNTKNTLYLQMNSLRAEDTAVYYCAADLDHSGFDYWGQGTLVTVSS ?
Result: 169
